- EXPERIMENT SUMMARY: Human clearance and half life of tested drugs
- Assay type: in vivo
PARAMETER MEASURED: Renal Clearance (% of Total CL) (%)

Example entries and their recorded answers appear below.
MOLECULE	MEASUREMENT UNITS	Renal Clearance (% of Total CL)
CCCCc1nc(Cl)c(CO)n1Cc1ccc(-c2ccccc2-c2nn[nH]n2)cc1	%	11
CC[C@H](C)C(=O)O[C@H]1C[C@H](O)C=C2C=C[C@H](C)[C@H](CC[C@@H](O)C[C@@H](O)CC(=O)O)[C@H]21	%	45

(P) C[C@H](N[C@@H](CCc1ccccc1)C(=O)O)C(=O)N1CCC[C@H]1C(=O)O [Enalaprilate, enalaprilate]
(Q) CCCCC(=O)N(Cc1ccc(-c2ccccc2-c2nnn[nH]2)cc1)[C@H](C(=O)O)C(C)C
Q: # query: argmin of Renal Clearance (% of Total CL) over P and Q Indicate which entry you chose by stating its label.
Result: Q
